B1: library; numbered along this chain (parent)
chain: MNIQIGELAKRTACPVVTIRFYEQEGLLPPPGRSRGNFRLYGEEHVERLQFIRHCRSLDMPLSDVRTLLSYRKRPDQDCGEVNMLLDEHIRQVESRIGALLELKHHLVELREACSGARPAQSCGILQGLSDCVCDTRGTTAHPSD

Variants of: B1
PROTOCOL DESCRIPTION: sfGFP reporter fluorescence (15 h) (µM FITC); higher = stronger transcriptional activation
REPORTED CONDITIONS: library round: Round 0; ligand: 1 µM Pb
Classification field: criterion met = sfGFP reporter fluorescence at or over 0.09; criterion not met = sfGFP reporter fluorescence under 0.09.

{"columns": ["SEQUENCE CHAIN", "ANSWER LABEL"],
 "data": [
  ["MNIQIGELAKRTACPVVTIRFYEQEGLLPPPGRSRGNFRLYGEEHVERLQFIRHCRSLDMPLSDVRTLLSYRKRPDQDCGEVNMLLDEHIRQVESRIGALLELKHHLVELRVACSGARPAQSCGILQGLSDCVCDTRGTTAHPSD [E112V]", "criterion not met"],
  ["MNIQIGELAKRTACPVVTIRFYEQEGLLPPPGRSRGNFRLYGEEHVERLQFIRHCRSLDMPCSDVRTLLSYRKRPDQDCGEVNMLLDEHIRQVESRIGALLELKHHLVELREACSGARPAQSCGILQGLSDCVCDTRGTTAHPSD [L62C]", "criterion not met"],
  ["MNIQIGELAKRTACPVVTIRFYEQEGLLPPPGRSRGNFRLYGEEHVERLQFIRHCRSLDMPLSDVRTLLSYRKRPDQDCGEVNMLLDEHIRQVESRIGALLELKHHLIELREACSGARPAQSCGILQGLSDCVCDTRGTTAHPSD [V108I]", "criterion not met"],
  ["MNIQIGELAKRTACPVVTIRPYEQEGLLPPPGRSRGNFRLYGEEHVERLQFIRHCRSLDMPLSDVRTLLSYRKRPDQDCGEVNMLLDEHIRQVESRIGALLELKHHLVELREACSGARPAQSCGILQGLSDCVCDTRGTTAHPSD [F21P]", "criterion not met"],
  ["MNIQIGELAKRTACPVVTIRFYEQEGLLPPPGRSRGNFRLYGEEHVERLQFIRHCRSLDMNLSKVRTLLSYRKRPDQDCGEVNMLLDEHIRQVESRIGALLELKHHLVELREACSGARPAQSCGILQGLSDCVCDTRGTTAHPSD [P61N D64K]", "criterion met"],
  ["MNIQIGELAKRTACPVVTIRFYEQEGLLPPPGRSRGNFRLYGEEHVERLQFIRHCRSLDMPLSDVRTLLSYRKRPDQDCGEVNMLLDEHIRQVESRIGALLELKHHLKELREACSGARPAQSCGILQGLSDCVCDTRGTTAHPSD [V108K]", "criterion not met"],
  ["MNIQIGELAKRTACPVVTIRFYEQEGLLPPPGRSRGNFRLYGEEHVERLQFIRHCRSLDMPLSDVRTLLSYRKRPDQDCGEVNMLLDEHIRQVESRGGALLELKHHLVELREACSGARPAQSCGILQGLSDCVCDTRGTTAHPSD [I97G]", "criterion not met"],
  ["MNIQIGELAKRTACPVVTIRFYEQEGLLPPPGRSRGNFRLYGEEHVERLQFIRHCRSLDLPLSKVRTLLSYRKRPDQDCGEVNMLLDEHIRQVESRIGALLELKHHLVELREACSGARPAQSCGILQILSDCVCDTRGTTAHPSD [M60L D64K G128I]", "criterion met"],
  ["MNIQIGELAKRTACPVVTIRFYEQEGLLPPPGRSRGNFRLYGEEHVERLQFIRHCRSLDMPLSDVRTLLSYRKRPDQDCGEVNMLLDEHIRQVESRIGALLELKHHLVELREACSGARPAQSCGILQGLSDCVCDTRGTTAHKSD [P143K]", "criterion not met"],
  ["MNIQIGELAKRTACPQVTIRFYEQEGLLPPPGRSRGNFRLYGEEHVERLQFIRHCRSLDMPLSDVRTLLSYRKRPDQDCGEVNMLLDEHIRQVESRIGALLELKHHLVELREACSGARPAQSCGILQGLSDCVCDTRGTTAHPSD [V16Q]", "criterion met"],
  ["MNIQIGELAKRTACPVVTIRFYEQEGLLPPPGRSRGNFRLYGEEHVERLQFIRHCRSLDLNLSKVRTLLSYRKRPDQDCGEVNMLLDEHIRQVESRIGALLELKHHLVELREACSGARPAQSCGILQILSDCVCDTRGTTAHPSD [M60L P61N D64K G128I]", "criterion met"],
  ["MNIQIGELAKRTACPVVTIRFYEQEGLLPPPGRSRGNFRLYGEEHVERLQFIRHCRSLDMNLSDVRTLLSYRKRPDQDCGEVNMLLDEHIRQVESRIGALLELVHHCVELREACSGARPAQSCGILQGLSDCVCDTRGTTAHPSD [P61N K104V L107C]", "criterion met"],
  ["MNIQIGELAKRTACPVVTIRFYEQEGLLPPPGRSRGNFRLYGEEHVERLQFIRHCRSLDMYLSDVRTLLSYRKRPDQDCGEVNMLLDEHIRQVESRIGALLELKHHLVELREACSGARPAQSCGILQGLSDCVCDTRGTTAHPSD [P61Y]", "criterion not met"],
  ["MNIQIGYLAKRTACPVVTIRFYEQEGLLPPPGRSRGNFRLYGEEHVERLQFIRHCRSLDMPLSDVRTLLSYRKRPDQDCGEVNMLLDEHIRQVESRIGALLELKHHLVELREACSGARPAQSCGILQGLSDCVCDTRGTTAHPSD [E7Y]", "criterion not met"],
  ["MNIQIGELAKRTACPVVTIRFYEQEGLLPPPGRSRGNFRLYGEEHVERLQFIRHCRSLDMPLSDVRTLLSYRKRPDQDCGEVNMLLDEHIRQVESRIGALLELKHHLVELREACSGARPAQSCGILQQLSDCVCDTRGTTAHPSD [G128Q]", "criterion met"],
  ["MNIQIGELAKRTACPVVTIRFYEQEGLLPPPGRSRGNFRLYGEEHVERLQFIRHCRSLDMPLSDVRTLLSYRKRPDQDCGEVEMLLDEHIRQVESRIGALLELKHHLVELREACSGARPAQSCGILQGLSDCVCDTRGTTAHPSD [N83E]", "criterion not met"],
  ["MNIQIGELAKRTACFVVTIRFYEQEGLLPPPGRSRGNFRLYGEEHVERLQFIRHCRSLDMPLSDVRTLLSYRKRPDQDCGEVNMLLDEHIRQVESRIGALLELKHHLVELREACSGARPAQSCGILQGLSDCVCDTRGTTAHPSD [P15F]", "criterion not met"],
  ["MNIQIGELAKRTACPVVTIRFYEQEGLLPPPGRSRGNFRLYGEEHVERLQFIRHCRSLDMPLSDVRTQLSYRKRPDQDCGEVNMLLDEHIRQVESRIGALLELKHHLVELREACSGARPAQSCGILQGLSDCVCDTRGTTAHPSD [L68Q]", "criterion not met"],
  ["MNIQIGELAKRTACPVVTIRFYEQEGLLPPPGRSRGNFRLYGEEHVERLQFARHCRSLDMPLSDVRTLLSYRKRPDQDCGEVNMLLDEHIRQVESRIGALLELKHHLVELREACSGARPAQSCGILQGLSDCVCDTRGTTAHPSD [I52A]", "criterion not met"],
  ["MNIQIGELAKRTACPVVTIRFYEQEGHLPPPGRSRGNFRLYGEEHVERLQFIRHCRSLDMPLSDVRTLLSYRKRPDQDCGEVNMLLDEHIRQVESRIGALLELKHHLVELREACSGARPAQSCGILQGLSDCVCDTRGTTAHPSD [L27H]", "criterion not met"],
  ["MNIQIGELAKRTACPVVTIRFYEQEGLLPPPGRSRGNFRLYGEEHVERLQFIRHCRSLDMPLSKVRTLLSYRKRPDQDCGEVNMLLDEHIRQVESRIGALLELVHHLVELREACSGARPAQSCGILQMLSDCVCDTRGTTAHPSD [D64K K104V G128M]", "criterion met"]
]}
